All values here come from ChEMBL document CHEMBL1201862.

- SYSTEM: Streptokinase A (Streptococcus pyogenes serotype M1, UniProt P10520)
- Sequence (P10520 whole entry): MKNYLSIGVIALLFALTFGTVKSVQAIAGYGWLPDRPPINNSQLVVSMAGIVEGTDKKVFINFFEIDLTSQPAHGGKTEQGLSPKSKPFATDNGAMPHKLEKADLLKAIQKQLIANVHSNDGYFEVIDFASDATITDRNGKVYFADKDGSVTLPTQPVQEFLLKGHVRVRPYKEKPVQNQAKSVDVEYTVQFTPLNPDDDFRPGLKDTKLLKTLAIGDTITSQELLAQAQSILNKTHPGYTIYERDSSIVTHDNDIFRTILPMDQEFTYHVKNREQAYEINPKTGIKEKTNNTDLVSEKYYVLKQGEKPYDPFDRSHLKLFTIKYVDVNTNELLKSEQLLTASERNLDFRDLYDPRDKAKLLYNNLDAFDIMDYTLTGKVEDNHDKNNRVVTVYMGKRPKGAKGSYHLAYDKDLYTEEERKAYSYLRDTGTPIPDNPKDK
- ASSAY INFO: S. pyogenes streptokinase expression inhibitors, potency, dose response, plasminogen activation absorbance, OD405 (AID 1914);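 note: secreted streptokinase activity via plasminogen activation per viability signal from cell pellet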
- Format: functional, Streptococcus pyogenes M1 GAS
Calls of active or inactive are those of the source. Cut-off read from the data, not from the text of the source: actives have a measured EC50 and inactives only a lower limit.

{"columns": ["MOLECULE", "EC50"],
 "data": [
  ["Cn1c(O)c(N=Nc2nc(-c3ccccc3)cs2)c2ccccc21", "7.09 µM (active)"],
  ["Cc1cccc(NCC(=O)N/N=C\\c2cccc(Oc3ccccc3)c2)c1", "> 150 µM (not active)"],
  ["CCOC(=O)c1ccc(NC2=CC(=O)C(=O)c3ccccc32)cc1", "9.93 µM (active)"],
  ["C=CCN1C(=O)/C(=C/c2ccc(OC(C)=O)c(OCC)c2[N+](=O)[O-])SC1=S", "> 150 µM (not active)"],
  ["Cc1ccccc1N1CCN(S(=O)(=O)c2nnc(NC(=O)c3ccco3)s2)CC1", "5.16 µM (active)"],
  ["O=C(c1cc2ccccc2cc1O)N1CCN(c2ccccc2O)CC1", "> 150 µM (not active)"],
  ["COc1ccc(-c2cc(C3CCN(c4ccc(C(C)=O)cc4[N+](=O)[O-])CC3)[nH]n2)cc1", "> 150 µM (not active)"],
  ["Cc1ccc2nc(N=C(N)NC(=O)NC3CCCCC3)nc(C)c2c1", "52.7 µM (active)"],
  ["CS(=O)(=O)c1ccc2nc(NC(=O)c3ccc(NS(=O)(=O)c4cccc([N+](=O)[O-])c4)cc3)sc2c1", "> 150 µM (not active)"],
  ["O=C(COc1ccccc1)Nc1nnc(-c2ccccc2Cl)o1", "> 150 µM (not active)"],
  ["CC(C)C(NC(=O)C(c1ccccc1)c1ccccc1)c1nc2ccccc2[nH]1 (stereo not given)", "> 150 µM (not active)"],
  ["O=C(/C=C/c1cccc(Cl)c1)c1ccc([N+](=O)[O-])o1", "3.36 µM (active)"],
  ["CCCCN(CCCC)c1cc(C)nc(-c2ccccc2O)n1", "5.4 µM (active)"],
  ["Brc1cc2c(cc1C1Nc3ccccc3C3C=CCC31)OCO2 (stereo not given)", "2.55 µM (active)"],
  ["O=c1c2c(n3nnnc3n1Cc1ccccc1)-c1ccccc1CC21CCCC1", "6.74 µM (active)"],
  ["CC1CCN(c2ccc(-c3ccc(NC(=O)c4ccco4)cc3)nn2)CC1", "> 150 µM (not active)"],
  ["O=C(Nc1nc2cc3c(cc2s1)OCCO3)c1ccc([N+](=O)[O-])o1", "> 150 µM (not active)"],
  ["Cc1cccc(CSC2=NCCN2S(=O)(=O)c2ccc(F)cc2)c1", "23.2 µM (active)"],
  ["CCCCCCCCCCCCCCCC[N+](C)(C)C", "19.6 µM (active)"],
  ["Oc1c(Cl)cc(Cl)cc1/C=N/NC(=S)NC1CC2C=CC1C2 (stereo not given)", "0.539 µM (active)"],
  ["C=CCn1c(NC(=O)c2ccc(C)cc2)nc2ccccc21", "> 150 µM (not active)"],
  ["COc1ccc(N=C(S)NC(NC(=O)c2ccc(Cl)cc2Cl)C(Cl)(Cl)Cl)c([N+](=O)[O-])c1 (stereo not given)", "20.9 µM (active)"],
  ["O=C(O)CC/C(=C\\c1cc2c(cc1Br)OCO2)c1nc2ccccc2s1", "56 µM (active)"],
  ["COc1ccc(C(=O)NNC(=S)NC(=O)c2ccco2)cc1", "> 150 µM (not active)"],
  ["CCOc1cccc(/C=N/Nc2ccc(S(=O)(=O)N(CC)CC)cn2)c1O", "> 150 µM (not active)"]
]}
